Tested on: MDA-MB-231 cells
ASSAY_NOTES: MTT assay for cell killing, breast cancer cell line MDA-MB-231
Format: cell-based
ASSAY_SETUP: Homo sapiens; MDA-MB-231, MTT, 72h; single experiment 2; read-out: IC50 Exp2
PROPERTY_MEASURED: IC50
Please state the value followed by its unit.

Use these answered entries as a reference point.
CCNC(=S)NCC(c1cccs1)c1c[nH]c2ccccc12 (stereo not drawn) = 65.8 µM
CCCCCNC(=S)NCC(c1cccs1)c1c[nH]c2ccccc12 (stereo not drawn) = 49.2 µM
S=C(NCC1CCCCC1)NCC(c1cccs1)c1c[nH]c2ccccc12 (stereo not drawn) = 40.3 µM
CCCCCCCNC(=S)NCC(c1cccs1)c1c[nH]c2ccccc12 (stereo not drawn) = 44.3 µM
CCCNC(=S)NCC(c1cccs1)c1c[nH]c2ccccc12 (stereo not drawn) = 48.6 µM

Kindly state the measured IC50 obtained for CCCCCCNC(=S)NCC(c1cccs1)c1c[nH]c2ccccc12 (stereo not drawn) with MDA-MB-231 cells.
39 µM
